Assay: LAP4-GFP expression modulators in yeast, confirmation, cell-based, cherry picks, flow cytometry, mother/daughter gates (AID 2271);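 note: ratio of sample to DMSO plate mean so 100% equals DMSO level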
Settings: S. cerevisiae LAP4-GFP strain, 3 h, measured here: daughter cell gate response, at 10 µM, stronger effect = higher value, 100 means same as DMSO control
Collected GFP response relative to DMSO values appear next to each entry.
The response must be a number in % with no trailing unit.

// worked examples, GFP response relative to DMSO included
COMPOUND: O=C(Nc1cc(Sc2ccccn2)cc([N+](=O)[O-])c1)c1cccc(Cl)c1
GFP response relative to DMSO [%]: 104
--
COMPOUND: Cc1ccc(NC(=O)c2nc(S(=O)(=O)Cc3ccccc3)ncc2Cl)cc1
GFP response relative to DMSO [%]: 134
--
COMPOUND: CC(=O)Nc1ccc(NC(=O)c2nc(S(=O)(=O)Cc3ccccc3)ncc2Cl)cc1
GFP response relative to DMSO [%]: 105

Incoming: Determine its reported GFP response relative to DMSO: Cc1ccc(/C=N/Nc2ncc(Cl)cc2Cl)s1
Outgoing: 202

Incoming: Determine its reported GFP response relative to DMSO: Fc1ccc(/C=N/Nc2nc(-c3cccnc3)nc3ccccc23)cc1
Outgoing: 105

Incoming: Determine its reported GFP response relative to DMSO: Cc1cc(O)c(C(=O)/C=C/c2ccccc2O)c(=O)o1
Outgoing: 109

Incoming: Determine its reported GFP response relative to DMSO: COc1ccc(N2CCN(C(=O)C3CCCN(S(=O)(=O)c4ccc(C)cc4)C3)CC2)cc1 (stereo not given)
Outgoing: 104
